Every entry's value here was drawn from ChEMBL document CHEMBL3774376.

test: Neurotoxicity in ip dosed CD1 albino mouse assessed as acute motor impairment by rotarod test; type: toxicity, organism-based; details: in vivo
Reported endpoint: TD50

- Molecule: "CC1CC(=O)N(CC(=O)N2CCN(c3ccccc3Cl)CC2)C1=O (configuration not stated)"
  Measured result: "> 500 mg/kg"
- Molecule: "CCC1(C)CC(=O)N(CC(=O)N2CCN(c3ccccc3Cl)CC2)C1=O (configuration not stated)"
  Measured result: "132 mg/kg"
- Molecule: "CC1CC(=O)N(CC(=O)N2CCN(c3ccc(Cl)cc3)CC2)C1=O (configuration not stated)"
  Measured result: "> 500 mg/kg"
- Molecule: "CCC1(C)CC(=O)N(CC(=O)N2CCN(c3ccc(F)cc3)CC2)C1=O (configuration not stated)"
  Measured result: "191 mg/kg"
- Molecule: "CC[C@@H](C(N)=O)N1CCCC1=O"
  Measured result: "> 500 mg/kg"
- Molecule: "CCC1(C)CC(=O)N(CC(=O)N2CCN(c3cccc(C(F)(F)F)c3)CC2)C1=O (configuration not stated)"
  Measured result: "285 mg/kg"
- Molecule: "CC1CC(=O)N(CC(=O)N2CCN(c3ccc(Cl)c(Cl)c3)CC2)C1=O (configuration not stated)"
  Measured result: "263 mg/kg"

* * *

species on record: Mus musculus; experiment: Protection index, ratio of TD50 for CD1 albino mouse to ED50 for protection against maximal electroshock-induced seizures in CD1 albino mouse
Ratio TD50/ED50 for assorted molecules

- Molecule: "CCC1(C)CC(=O)N(CC(=O)N2CCN(c3ccccc3Cl)CC2)C1=O (stereo not drawn)"
  Ratio TD50/ED50: 1.08
- Molecule: "CC1CC(=O)N(CC(=O)N2CCN(c3ccc(F)cc3)CC2)C1=O (stereo not drawn)"
  Ratio TD50/ED50: ">3.43"
- Molecule: "CCC1(C)CC(=O)N(CC(=O)N2CCN(c3ccc(F)cc3)CC2)C1=O (stereo not drawn)"
  Ratio TD50/ED50: 2.76
- Molecule: "O=C1NC(=O)C(c2ccccc2)(c2ccccc2)N1"
  Ratio TD50/ED50: 8.56
- Molecule: "CCC1(C)CC(=O)N(CC(=O)N2CCN(c3cccc(C(F)(F)F)c3)CC2)C1=O (stereo not drawn)"
  Ratio TD50/ED50: 4.06
- Molecule: "CC1CC(=O)N(CC(=O)N2CCN(c3cccc(Cl)c3)CC2)C1=O (stereo not drawn)"
  Ratio TD50/ED50: 3.91
- Molecule: "CC1CC(=O)N(CC(=O)N2CCN(c3ccc(Cl)cc3)CC2)C1=O (stereo not drawn)"
  Ratio TD50/ED50: ">15.59"
- Molecule: "CC1CC(=O)N(CC(=O)N2CCN(c3ccc(Cl)c(Cl)c3)CC2)C1=O (stereo not drawn)"
  Ratio TD50/ED50: 3.48

* * *

tested on: Mus musculus; assay: Protection index, ratio of TD50 for CD1 albino mouse to ED50 for protection against subcutaneous pentylenetetrazole-induced seizures in CD1 albino mouse
Ratio TD50/ED50 for assorted compounds

- Compound: "CC1CC(=O)N(CC(=O)N2CCN(c3cccc(Cl)c3)CC2)C1=O (stereo not given)"
  Ratio TD50/ED50: 8
- Compound: "CC1CC(=O)N(CC(=O)N2CCN(c3ccc(Cl)cc3)CC2)C1=O (stereo not given)"
  Ratio TD50/ED50: ">2"
- Compound: "CC1CC(=O)N(CC(=O)N2CCN(c3cccc(Cl)c3Cl)CC2)C1=O (stereo not given)"
  Ratio TD50/ED50: 4.6
- Compound: "CC1CC(=O)N(CC(=O)N2CCN(c3ccc(Cl)c(Cl)c3)CC2)C1=O (stereo not given)"
  Ratio TD50/ED50: 4.86
- Compound: "CCC1(C)CC(=O)N(CC(=O)N2CCN(c3ccc(F)cc3)CC2)C1=O (stereo not given)"
  Ratio TD50/ED50: 1.47
